Please consider the recorded pIC50 for Platelet-derived growth factor receptor beta (Homo sapiens) in what follows.
Note on units: pIC50 is unitless, being -log10 of a concentration expressed in mol/L.

Just so you know, measured pIC50 for Cc1[nH]c2c(c1C(=O)N1CCC[C@H]1CN1CCCC1)CCC/C2=C1/C(=O)Nc2ccc(F)cc21 came out at 6.93

Just so you know, measured pIC50 for CCN(CC)CCNC(=O)c1c(C)[nH]c2c1CCC/C2=C1/C(=O)Nc2cccc(F)c21 came out at 7.21

Just so you know, measured pIC50 for Cc1[nH]c2c(c1C(=O)NCCN(C)C)CCC/C2=C1/C(=O)Nc2ccc(F)cc21 came out at 7.64

Just so you know, measured pIC50 for Cc1[nH]c2c(c1C(=O)NCCc1ccccn1)CCC/C2=C1/C(=O)Nc2ccc(F)cc21 came out at 6.79

Just so you know, measured pIC50 for CCN(CC)CCNC(=O)c1c(C)[nH]c2c1CCC/C2=C1/C(=O)Nc2ccc(Br)cc21 came out at 8.12

Just so you know, measured pIC50 for CCN(CC)CCCNC(=O)c1c(C)[nH]c2c1CCC/C2=C1/C(=O)Nc2ccc(F)cc21 came out at 7.67

Just so you know, measured pIC50 for Cc1[nH]c2c(c1C(=O)NCCCN1CCCC1)CCC/C2=C1/C(=O)Nc2ccc(F)cc21 came out at 7.19

Just so you know, measured pIC50 for Cc1[nH]c2c(c1C(=O)N1CCC(N3CCCCC3)CC1)CCC/C2=C1/C(=O)Nc2ccc(F)cc21 came out at 7.39

Just so you know, measured pIC50 for Cc1[nH]c2c(c1C(=O)NCCN1CCCCC1)CCC/C2=C1/C(=O)Nc2ccc(F)cc21 came out at 7.71

---

# test name: Oral bioavailability in cynomolgus monkey
# Type: ADME, organism-based, Macaca fascicularis
# run conditions: in vivo
measured metric: bioavailability (%)
Your answer should be a plain number; it is taken to be in %.

Just so you know, measured bioavailability for CCN(CC)CCNC(=O)c1c(C)[nH]c2c1CCC/C2=C1/C(=O)Nc2ccc(F)cc21 came out at 90
